system: Trypanosoma cruzi; experiment: Antitrypanosomal activity against Trypanosoma cruzi Y strain bloodstream trypomastigotes assessed as lysis of parasite in presence of 5 % mouse blood incubated for 24 hrs by Neubauer chamber method; type: functional, organism-based
TEST_READOUT: IC50

## Input Which IC50 value belongs to CC(=O)c1ccc(/N=C2\C=C(OCc3cn(S(=O)(=O)c4ccc(C)cc4)nn3)C(=O)c3ccccc32)cc1 ?
## Output > 500 µM

## Input Which IC50 value belongs to Cc1ccc(S(=O)(=O)n2cc(COC3=C/C(=N\c4ccc(Br)cc4)c4ccccc4C3=O)nn2)cc1 ?
## Output > 500 µM

## Input Which IC50 value belongs to Cc1cccc(SC2=CC(=O)C(=O)c3ccccc32)c1 ?
## Output 65.6 µM

## Input Which IC50 value belongs to Cc1ccc(SC2=CC(=O)C(=O)c3ccccc32)cc1 ?
## Output 88.7 µM

## Input Which IC50 value belongs to O=C1C=C(Sc2ccccc2)c2ccccc2C1=O ?
## Output 24.3 µM

## Input Which IC50 value belongs to Cc1ccc(S(=O)(=O)n2cc(COC3=C/C(=N\c4ccccc4)c4ccccc4C3=O)nn2)cc1 ?
## Output > 500 µM

## Input Which IC50 value belongs to COc1ccc(/N=C2\C=C(OCc3cn(S(=O)(=O)c4ccc(C)cc4)nn3)C(=O)c3ccccc32)cc1 ?
## Output > 500 µM

## Input Which IC50 value belongs to Cc1ccc(S(=O)(=O)n2cc(COC3=C/C(=N\c4ccc(I)cc4)c4ccccc4C3=O)nn2)cc1 ?
## Output > 500 µM

## Input Which IC50 value belongs to Cc1ccc(S(=O)(=O)n2cc(COC3=C/C(=N\c4ccc(F)cc4)c4ccccc4C3=O)nn2)cc1 ?
## Output > 500 µM

###

experiment: Selectivity index, ratio of IC50 for mouse L929 cells to IC50 for human HCT116 cells after 72 hrs by MTT assay; type: toxicity; conditions: L929 cells versus HCT116 cells, read-out: Ratio IC50
Decide by selectivity ratio at 72 h: equal to or exceeding 2 means yes (1), less means no (0).

## Input Quick check: does C#CCOC1=C/C(=N\c2ccc(OC)cc2)c2ccccc2C1=O have selectivity ratio at 72 h greater than or equal to 2?
## Output yes (1)

## Input Quick check: does C#CCOC1=C/C(=N\c2ccc(F)cc2)c2ccccc2C1=O have selectivity ratio at 72 h greater than or equal to 2?
## Output no (0)

## Input Quick check: does C#CCOC1=C/C(=N\c2ccccc2)c2ccccc2C1=O have selectivity ratio at 72 h greater than or equal to 2?
## Output no (0)

## Input Quick check: does CC(=O)c1ccc(/N=C2\C=C(OCc3cn(S(=O)(=O)c4ccc(C)cc4)nn3)C(=O)c3ccccc32)cc1 have selectivity ratio at 72 h greater than or equal to 2?
## Output no (0)

## Input Quick check: does Cc1ccc(SC2=CC(=O)C(=O)c3ccccc32)cc1 have selectivity ratio at 72 h greater than or equal to 2?
## Output no (0)

## Input Quick check: does C#CCOC1=C/C(=N\c2ccc(Br)cc2)c2ccccc2C1=O have selectivity ratio at 72 h greater than or equal to 2?
## Output no (0)

## Input Quick check: does C#CCOC1=C/C(=N\c2ccc(Cl)cc2)c2ccccc2C1=O have selectivity ratio at 72 h greater than or equal to 2?
## Output no (0)

## Input Quick check: does Cc1ccc(/N=C2\C=C(OCc3cn(S(=O)(=O)c4ccc(C)cc4)nn3)C(=O)c3ccccc32)cc1 have selectivity ratio at 72 h greater than or equal to 2?
## Output yes (1)

## Input Quick check: does C#CCOC1=C/C(=N\c2ccc(C(C)=O)cc2)c2ccccc2C1=O have selectivity ratio at 72 h greater than or equal to 2?
## Output no (0)

## Input Quick check: does O=C1C=C(Sc2ccccc2)c2ccccc2C1=O have selectivity ratio at 72 h greater than or equal to 2?
## Output yes (1)

###

assay: Selectivity index, ratio of IC50 for mouse L929 cells to IC50 for human NCI-H460 cells after 72 hrs by MTT assay; format: toxicity; conditions: L929 cells versus NCI-H460 cells, read-out: Ratio IC50
TEST_READOUT: selectivity ratio at 72 h
Give a plain numeric answer without units written out.

## Input Which selectivity ratio at 72 h value belongs to COc1ccc(SC2=CC(=O)C(=O)c3ccccc32)cc1 ?
## Output 1

## Input Which selectivity ratio at 72 h value belongs to CC(=O)c1ccc(/N=C2\C=C(OCc3cn(S(=O)(=O)c4ccc(C)cc4)nn3)C(=O)c3ccccc32)cc1 ?
## Output 0.7

## Input Which selectivity ratio at 72 h value belongs to COc1ccc(/N=C2\C=C(OCc3cn(S(=O)(=O)c4ccc(C)cc4)nn3)C(=O)c3ccccc32)cc1 ?
## Output 2.6

## Input Which selectivity ratio at 72 h value belongs to Cc1ccc(S(=O)(=O)n2cc(COC3=C/C(=N\c4ccccc4)c4ccccc4C3=O)nn2)cc1 ?
## Output 2.9

## Input Which selectivity ratio at 72 h value belongs to Cc1ccc(S(=O)(=O)n2cc(COC3=C/C(=N\c4ccc(I)cc4)c4ccccc4C3=O)nn2)cc1 ?
## Output 1

## Input Which selectivity ratio at 72 h value belongs to C#CCOC1=C/C(=N\c2ccc(C)cc2)c2ccccc2C1=O ?
## Output 2

## Input Which selectivity ratio at 72 h value belongs to Cc1ccc(/N=C2\C=C(OCc3cn(S(=O)(=O)c4ccc(C)cc4)nn3)C(=O)c3ccccc32)cc1 ?
## Output 2.2

## Input Which selectivity ratio at 72 h value belongs to C#CCOC1=C/C(=N\c2ccc(Cl)cc2)c2ccccc2C1=O ?
## Output 1.9

## Input Which selectivity ratio at 72 h value belongs to C#CCOC1=C/C(=N\c2ccc(OC)cc2)c2ccccc2C1=O ?
## Output 3.3

## Input Which selectivity ratio at 72 h value belongs to C#CCOC1=C/C(=N\c2ccc(Br)cc2)c2ccccc2C1=O ?
## Output 1.3

## Input Which selectivity ratio at 72 h value belongs to O=C1C=C(Sc2ccccc2)c2ccccc2C1=O ?
## Output 0.7

## Input Which selectivity ratio at 72 h value belongs to Cc1cccc(SC2=CC(=O)C(=O)c3ccccc32)c1 ?
## Output 1

## Input Which selectivity ratio at 72 h value belongs to C#CCOC1=C/C(=N\c2ccc(F)cc2)c2ccccc2C1=O ?
## Output 1.9

## Input Which selectivity ratio at 72 h value belongs to Cc1ccc(S(=O)(=O)n2cc(COC3=C/C(=N\c4ccc(F)cc4)c4ccccc4C3=O)nn2)cc1 ?
## Output 2.7

## Input Which selectivity ratio at 72 h value belongs to C#CCOC1=C/C(=N\c2ccc(I)cc2)c2ccccc2C1=O ?
## Output 1

## Input Which selectivity ratio at 72 h value belongs to C#CCOC1=C/C(=N\c2ccc(C(C)=O)cc2)c2ccccc2C1=O ?
## Output 1

## Input Which selectivity ratio at 72 h value belongs to Cc1ccc(S(=O)(=O)n2cc(COC3=C/C(=N\c4ccc(Cl)cc4)c4ccccc4C3=O)nn2)cc1 ?
## Output 1.6

## Input Which selectivity ratio at 72 h value belongs to C#CCOC1=C/C(=N\c2ccccc2)c2ccccc2C1=O ?
## Output 1.6

## Input Which selectivity ratio at 72 h value belongs to Cc1ccc(SC2=CC(=O)C(=O)c3ccccc32)cc1 ?
## Output 0.8

## Input Which selectivity ratio at 72 h value belongs to Cc1ccc(S(=O)(=O)n2cc(COC3=C/C(=N\c4ccc(Br)cc4)c4ccccc4C3=O)nn2)cc1 ?
## Output 1.9

###

system: K562; assay: Cytotoxicity against human K562 cells assessed as reduction in cell viability after 72 hrs by MTT assay; format: functional, cell-based; conditions: K562, 72 h
pIC50: −log10 of the molar value.
Decide by pIC50: equal to or exceeding 5 means 1, less means 0.

## Input Quick check: does Cc1ccc(S(=O)(=O)n2cc(COC3=C/C(=N\c4ccc(Br)cc4)c4ccccc4C3=O)nn2)cc1 have pIC50 greater than or equal to 5?
## Output 1

## Input Quick check: does C#CCOC1=C/C(=N\c2ccc(I)cc2)c2ccccc2C1=O have pIC50 greater than or equal to 5?
## Output 0

## Input Quick check: does C#CCOC1=C/C(=N\c2ccc(C(C)=O)cc2)c2ccccc2C1=O have pIC50 greater than or equal to 5?
## Output 0

## Input Quick check: does O=C1C=C(Sc2ccccc2)c2ccccc2C1=O have pIC50 greater than or equal to 5?
## Output 0

## Input Quick check: does COc1cccc2c1C(=O)c1c(O)c3c(c(O)c1C2=O)C[C@@](O)(C(=O)CO)C[C@@H]3O[C@H]1C[C@H](N)[C@H](O)[C@H](C)O1 have pIC50 greater than or equal to 5?
## Output 1

## Input Quick check: does C#CCOC1=C/C(=N\c2ccc(Br)cc2)c2ccccc2C1=O have pIC50 greater than or equal to 5?
## Output 0

## Input Quick check: does Cc1cccc(SC2=CC(=O)C(=O)c3ccccc32)c1 have pIC50 greater than or equal to 5?
## Output 0

## Input Quick check: does Cc1ccc(SC2=CC(=O)C(=O)c3ccccc32)cc1 have pIC50 greater than or equal to 5?
## Output 0

## Input Quick check: does C#CCOC1=C/C(=N\c2ccc(C)cc2)c2ccccc2C1=O have pIC50 greater than or equal to 5?
## Output 0

## Input Quick check: does C#CCOC1=C/C(=N\c2ccc(OC)cc2)c2ccccc2C1=O have pIC50 greater than or equal to 5?
## Output 0

## Input Quick check: does Cc1ccc(/N=C2\C=C(OCc3cn(S(=O)(=O)c4ccc(C)cc4)nn3)C(=O)c3ccccc32)cc1 have pIC50 greater than or equal to 5?
## Output 1

## Input Quick check: does CC(=O)c1ccc(/N=C2\C=C(OCc3cn(S(=O)(=O)c4ccc(C)cc4)nn3)C(=O)c3ccccc32)cc1 have pIC50 greater than or equal to 5?
## Output 1

## Input Quick check: does COc1ccc(/N=C2\C=C(OCc3cn(S(=O)(=O)c4ccc(C)cc4)nn3)C(=O)c3ccccc32)cc1 have pIC50 greater than or equal to 5?
## Output 0

## Input Quick check: does C#CCOC1=C/C(=N\c2ccccc2)c2ccccc2C1=O have pIC50 greater than or equal to 5?
## Output 0
